The reported numbers originate from paper PMC6218115.

molecules and their reported Kd
assay: Plasma protein binding, TRANSIL XL AGP binding kit; format: in vitro ADME, human; conditions: TRANSIL XL AGP beads 0.04-3 μM, 5 μM peptide (3H-labelled + non-labelled), LSC read-out, nonlinear regression
Non-standard residues stand in square brackets, D forms with d. Residues, ends and D or L forms follow the SMILES beside them.
parameterMeasured: Kd (nM)

molecule="CC[C@@H](C)[C@@H](NC(=O)[C@@H](CCCNC(=N)N)NC(=O)[C@@H](CCCCN)NC(=O)[C@H](N)CCCNC(=N)N)C(=O)N[C@H](CCCNC(=N)N)C(=O)N[C@H](CC(C)C)C(=O)N[C@@H](C(=O)N[C@@H](C(=O)N[C@H](CCCCN)C(=O)N[C@H](CCCCN)C(=O)N[C@H](CCCCN)C(=O)N[C@H](CCCNC(=N)N)C(N)=O)[C@H](C)O)C(C)C [ANK6] (H-[dR][dK][dR][dI][dR][dL][dV][dT][dK][dK][dK][dR]-NH2; N-terminus assumed)" unitslabel=nM assayvalue=290
molecule="CC[C@@H](C)[C@H]1NC(=O)[C@@H](CCCNC(=N)N)NC(=O)[C@@H](CCCCN)NC(=O)[C@@H](CCCNC(=N)N)NC(=O)[C@@H](CCCNC(=N)N)NC(=O)[C@@H](CCCNC(=N)N)NC(=O)[C@@H](CCCCN)NC(=O)[C@@H](CCCCN)NC(=O)[C@@H](CCCCN)NC(=O)[C@@H]([C@H](C)O)NC(=O)[C@@H](C(C)C)NC(=O)[C@@H](CC(C)C)NC(=O)[C@@H](CCCNC(=N)N)NC1=O [cANK6r] (cyclo([dR][dK][dR][dI][dR][dL][dV][dT][dK][dK][dK][dR][dR]))" unitslabel=nM assayvalue=280

###

assay: Cell viability assay (MTT), Aβ1-42-induced cytotoxicity; type: cell-based, rat
Non-standard residues stand in square brackets, D forms with d. Residues, ends and D or L forms follow the SMILES beside them.
parameterMeasured: IC50 (µM)

molecule="CC[C@@H](C)[C@H]1NC(=O)[C@@H](CCCNC(=N)N)NC(=O)[C@@H](CCCCN)NC(=O)[C@@H](CCCNC(=N)N)NC(=O)[C@@H](CCCNC(=N)N)NC(=O)[C@@H](CCCNC(=N)N)NC(=O)[C@@H](CCCCN)NC(=O)[C@@H](CCCCN)NC(=O)[C@@H](CCCCN)NC(=O)[C@@H]([C@H](C)O)NC(=O)[C@@H](C(C)C)NC(=O)[C@@H](CC(C)C)NC(=O)[C@@H](CCCNC(=N)N)NC1=O [cANK6r] (cyclo([dR][dK][dR][dI][dR][dL][dV][dT][dK][dK][dK][dR][dR]))" assayvalue=14
